Provenance of the data: patent US20100172907A1

Molecular target: T1, BSA-conjugated Aβ heptapeptide FFAEDVC (C-terminal Cys coupled to NSMP-activated BSA);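 further: ELISA of antibody at 10 or 2 µg/ml binding plate-coated BSA–peptide conjugates, detected with HRP anti-human Ig and TMB colour, mock-treated BSA without peptide as negative control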
T1 construct: also called Peptide 19-24
T1 peptide: FFAEDVC
Assay: ELISA
Quick list: OD ratio 19-24/BSA per entry.

{"columns": ["Binder", "OD ratio 19-24/BSA"],
 "data": [
  ["MS-Roche #7.2.H1 Fab (Fab, V domains shown) VH: QVQLVESGGGLVQPGGSLRLSCAASGFTFSSYAMSWVRQAPGKGLEWVSAINANGLKKYYADSVKGRFTISRDNSKNTLYLQMNSLRAEDTAVYYCARGKGNTHKPYGYVRYFDVWGQGTLVTVSS VL: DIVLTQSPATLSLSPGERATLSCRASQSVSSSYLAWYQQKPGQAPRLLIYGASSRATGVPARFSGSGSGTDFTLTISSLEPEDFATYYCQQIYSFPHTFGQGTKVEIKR", 9],
  ["MS-Roche #7.12.L1 Fab (Fab, V domains shown) VH: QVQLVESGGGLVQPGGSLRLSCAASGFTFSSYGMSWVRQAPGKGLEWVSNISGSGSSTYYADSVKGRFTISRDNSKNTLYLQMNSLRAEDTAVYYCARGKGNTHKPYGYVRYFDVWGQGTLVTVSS VL: DIVLTQSPATLSLSPGERATLSCRASQYVFRRYLAWYQQKPGQAPRLLISGSSNRATGVPARFSGSGSGTDFTLTISSLEPEDFAVYYCLQLYNIPNTFGQGTKVEIKR", 10],
  ["MS-Roche #7.9.H2 Fab (Fab, V domains shown, assembled) VH: QVQLVESGGGLVQPGGSLRLSCAASGFTFSSYAMSWVRQAPGKGLEWVSAINADGNRKYYADSVKGRFTISRDNSKNTLYLQMNSLRAEDTAVYYCARGKGNTHKPYGYVRYFDVWGQGTLVTVSS VL: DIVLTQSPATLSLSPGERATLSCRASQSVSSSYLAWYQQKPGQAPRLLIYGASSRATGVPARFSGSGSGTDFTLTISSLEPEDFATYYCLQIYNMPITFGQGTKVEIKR", 8]
]}
